We begin with a simple list: items and their reported IC50.
- Measurement Target: MCR-1 (Homo sapiens, UniProt Q01726)
- Construct: expressed in transfected cells; host or cells: HEK 293
- Sequence (Q01726 whole entry): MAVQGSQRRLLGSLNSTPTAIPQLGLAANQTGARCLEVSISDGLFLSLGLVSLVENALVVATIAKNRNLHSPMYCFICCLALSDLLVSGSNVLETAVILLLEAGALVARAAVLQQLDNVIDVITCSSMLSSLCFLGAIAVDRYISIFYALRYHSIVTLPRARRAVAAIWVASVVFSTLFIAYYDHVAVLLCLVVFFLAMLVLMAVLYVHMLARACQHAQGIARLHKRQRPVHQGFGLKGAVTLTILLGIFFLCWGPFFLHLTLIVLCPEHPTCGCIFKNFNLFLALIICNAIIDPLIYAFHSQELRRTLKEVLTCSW
- Assay: Melanocortin receptor binding assay, competition with 125I-HP 467, HEK 293 cells expressing hMCR-1
- Condition Info: inhibition of binding of 125I-HP 467, HEK 293 cells expressing MCR-1; TRG 2414 library; read-out: MC-1 IC50

Compound	Unit Label	IC50
CCCOc1ccc(C2C(CNCCc3cccc(Cl)c3)c3ccccc3CN2CCCCC(CN)NCC(C)c2ccc(CC(C)C)cc2)cc1 (centres unmarked) [TRG 2414-176]	µM	21.9
NCC(CCCCN1Cc2ccccc2C(CNCc2ccccc2C(F)(F)F)C1c1cccc(Oc2ccccc2)c1)NCc1ccccc1 (centres unmarked) [TRG 2414-83]	µM	31.5
COc1ccccc1CCNCC1c2ccccc2CN(CCCCC(CN)NCc2ccccc2)C1c1cc(C(F)(F)F)cc(C(F)(F)F)c1 (centres unmarked) [TRG 2414-51]	µM	6.45
NCC(N)CCCCN1Cc2ccccc2C(CNCCc2cccc(Cl)c2)C1c1cc(C(F)(F)F)cc(C(F)(F)F)c1 (centres unmarked) [TRG 2414-53]	µM	9.78
CC(C)Cc1ccc(C(C)CNC(CN)CCCCN2Cc3ccccc3C(CNC3CCCCC3)C2c2ccc(Cl)cc2Cl)cc1 (centres unmarked) [TRG 2414-40]	µM	8.64
NCC(CCCCN1Cc2ccccc2C(CNC2CCCCCC2)C1c1ccc(Oc2ccccc2)cc1)NCCc1ccccc1 (centres unmarked) [TRG 2414-154]	µM	4.85
CCCOc1ccc(C2C(CNCc3ccccc3OCC)c3ccccc3CN2CCCCC(CN)NCc2ccccc2)cc1 (centres unmarked) [TRG 2414-167]	µM	2.16
COc1ccc(CCNCC2c3ccccc3CN(CCCCC(CN)NCc3ccccc3)C2c2cccc(Oc3ccccc3)c2)cc1 (centres unmarked) [TRG 2414-107]	µM	6.55
COc1ccc(CNCC2c3ccccc3CN(CCCCC(CN)NCCc3ccccc3)C2c2ccc(Oc3ccccc3)cc2)cc1 (centres unmarked) [TRG 2414-142]	µM	4.38
COc1ccc(CCNCC2c3ccccc3CN(CCCCC(CN)NCc3ccccc3)C2c2cc(C(F)(F)F)cc(C(F)(F)F)c2)cc1 (centres unmarked) [TRG 2414-67]	µM	0.033
CCOc1ccccc1CNCC1c2ccccc2CN(CCCCC(CN)NCCc2ccccc2)C1c1ccc(Oc2ccccc2)cc1 (centres unmarked) [TRG 2414-126]	µM	6.43
COc1cccc(CNCC2c3ccccc3CN(CCCCC(N)CN)C2c2cccc(Oc3ccccc3)c2)c1 (mixture of isomers) [TRG 2414-97]	µM	4.51
NCC(CCCCN1Cc2ccccc2C(CNC2CCCCCC2)C1c1cc(C(F)(F)F)cc(C(F)(F)F)c1)NCc1ccccc1 (centres unmarked) [TRG 2414-75]	µM	1.92
COc1ccc(CCNCC2c3ccccc3CN(CCCCC(N)CN)C2c2cccc(Oc3ccccc3)c2)cc1 (centres unmarked) [TRG 2414-105]	µM	3.71
